# Test system: K562
# experimentalDetails: NCI tumour cell line growth inhibition, 48 h
Calls of active or inactive are those of the source. Rule as the data show it: active = GI50 up to about 1.1 µM and inactive = higher.
Select the correct class. Options are 1 (active), 0 (inactive) and nothing else.

A selection of reference data follows.
>>> df
                                   molecule  targetofassay  assignedcategory
0  Cc1cc(NC[C@H](O)[C@H](O)[C@H](O)CO)c(Sc2cc(=O)[nH]c(=O)[nH]2)cc1C           K562                 0
1  COc1cc(/N=N/N(C)C)c(C(C)c2c3cc(OC)c(OC)cc3cc[n+]2C)cc1OC (stereo unspecified)           K562                 0
2  CCOC(=O)C(Cc1ccc(N(CCCl)CCCl)cc1)NC(=O)C(Cc1ccccc1)NC(C)=O (stereo unspecified)           K562                 1
3  CCCCCCCCCCCCOP(=O)(O)OP(=O)(O)OCC1OC(n2ccc(N)nc2=O)CC1O (stereo unspecified)           K562                 0
4                               OCCCc1cnco1           K562                 0
5  COc1ccc(/C(CC2OC(=O)c3ccccc32)=N\NC(N)=O)cc1 (stereo unspecified)           K562                 0

// return assay outcome for C=C(CCCO)[C@@H]1CC[C@@](C)(O)[C@H]1C
0

// return assay outcome for Cc1ccc(O)c(Cc2nc3ccccc3nc2-c2cccc(Br)c2)c1
0

---

# System: SW-620
# experimentalDetails: NCI tumour cell line growth inhibition, 48 h
The source made the active and inactive calls. No stated cut-off is given here; in the data, active = GI50 up to about 1.1 µM and inactive = higher.
Collected GI50 values appear next to each entry.

In [3]: df
Out[3]:
      molecule           assayvalue
0  OCCCc1cnco1  > 100 µM (inactive)

Consider the molecule O=C(/C=C/c1ccccc1F)C(c1ccccc1)c1ccccc1 and give its measured GI50.
3.83 µM (inactive)

Consider the molecule CC1(CCc2ccccc2)CC1(Br)Br (stereo not given) and give its measured GI50.
> 100 µM (inactive)

Consider the molecule Cc1ccc(Sc2cc([N+](=O)[O-])cc(Sc3ccc(C)cc3)c2Sc2ccc(C)cc2)cc1 and give its measured GI50.
> 100 µM (inactive)

Consider the molecule COC(=O)C1=C(SC)SC2(C(=O)OC)C3C=C(C)C4C(N13)C42C(=O)OC (stereo not given) and give its measured GI50.
> 100 µM (inactive)

Consider the molecule CC1(C)C(=O)/C=C\C(=O)C(C)(C)C2=CC=C(O2)C(C)(C)C(=O)C(Br)C(Br)C(=O)C(C)(C)C2=CC=C1O2 (stereo not given) and give its measured GI50.
7.4 µM (inactive)

Consider the molecule CCc1cccc(C)c1N1C(=O)C(=O)C(c2nc3ccccc3o2)/C(=N/NC(=S)NN)C1=O (stereo not given) and give its measured GI50.
> 100 µM (inactive)

Consider the molecule O=[N+]([O-])c1ccc(C(Nc2ccccc2)c2ccc3cccnc3c2O)cc1 (stereo not given) and give its measured GI50.
6.27 µM (inactive)

Consider the molecule C/C(C=O)=C1\C(O)C[C@]1(C)C1CC(C)(C)CC1O (stereo not given in full) and give its measured GI50.
> 100 µM (inactive)

Consider the molecule COc1cc(C2SCCCCCCCCCCSC(c3ccc(O)c(OC)c3)SCCCCCCCCCCS2)ccc1O (stereo not given) and give its measured GI50.
> 100 µM (inactive)
